Tested on: Vero Cells
Experimental protocol: Cytotoxicity, Vero cells
Type: cell-based
Particulars: Table 1

{"Compound": "C[C@@H]1[C@H](O)[C@@H](C)/C=C/C=C/C=C/C=C/C=C/C=C/C=C/[C@H](O[C@@H]2O[C@H](C)[C@@H](O)[C@H](N)[C@@H]2O)C[C@@H]2O[C@](O)(C[C@@H](O)C[C@@H](O)[C@H](O)CC[C@@H](O)C[C@@H](O)CC(=O)O[C@H]1C)C[C@H](O)[C@H]2C(=O)O [Amph B, Amphotericin B, reference compound]", "Assay target": "Vero Cells", "TC50 Vero Cells": "6.5 µg/mL"}

---

Listing: MRS MFC of selected molecules
Test system: MRSA
Experimental protocol: Antibacterial susceptibility testing, MRSA
Format: cell-based, methicillin resistant Staphylococcus aureus
Particulars: Table 1

{"Molecule": "Brc1ccc(Sc2cc3ccccc3[n+](CCCCCc3ccccc3)c2)cc1.[I-] [XYZ-III-89]", "MRS MFC, µg/mL": 10}
{"Molecule": "COc1ccccc1Sc1cc2ccccc2[n+](CCCCCc2ccccc2)c1.[I-] [XYZ-IV-18]", "MRS MFC, µg/mL": 5.0}
{"Molecule": "COc1cccc(Sc2cc3ccccc3[n+](CCCCCc3ccccc3)c2)c1.[I-] [XYZ-IV-20]", "MRS MFC, µg/mL": 10}
{"Molecule": "Fc1cccc(Sc2cc3ccccc3[n+](CCCCCc3ccccc3)c2)c1.[I-] [XYZ-IV-21]", "MRS MFC, µg/mL": 20}
{"Molecule": "[I-].[O-][S+](c1cc(C(F)(F)F)cc(C(F)(F)F)c1)c1cc2ccccc2[n+](CCCCCc2ccccc2)c1 (centres unmarked) [XYZ-V-13]", "MRS MFC, µg/mL": 10}
{"Molecule": "[I-].[O-][S+](c1cccc(C(F)(F)F)c1)c1cc2ccccc2[n+](CCCCCc2ccccc2)c1 (centres unmarked) [XYZ-IV-87]", "MRS MFC, µg/mL": 20}
{"Molecule": "Fc1ccccc1Sc1cc2ccccc2[n+](CCCCCc2ccccc2)c1.[I-] [XYZ-IV-19]", "MRS MFC, µg/mL": 5.0}
{"Molecule": "[I-].[O-][S+](c1cc2ccccc2[n+](CCCCCc2ccccc2)c1)c1ccccc1C(F)(F)F (centres unmarked) [XYZ-IV-90]", "MRS MFC, µg/mL": 10}
{"Molecule": "FC(F)(F)c1ccccc1Sc1cc2ccccc2[n+](CCCCCc2ccccc2)c1.[I-] [XYZ-IV-25]", "MRS MFC, µg/mL": 2.5}
{"Molecule": "Brc1ccccc1Sc1cc2ccccc2[n+](CCCCCc2ccccc2)c1.[I-] [XYZ-III-85]", "MRS MFC, µg/mL": 10}
{"Molecule": "COc1ccc(Sc2cc3ccccc3[n+](CCCCCc3ccccc3)c2)cc1.[I-] [XYZ-III-72]", "MRS MFC, µg/mL": 10}
{"Molecule": "Clc1ccccc1Sc1cc2ccccc2[n+](CCCCCc2ccccc2)c1.[I-] [XYZ-III-74]", "MRS MFC, µg/mL": 10}
{"Molecule": "[I-].[O-][S+](c1ccc(F)cc1)c1cc2ccccc2[n+](CCCCCc2ccccc2)c1 (centres unmarked) [XYZ-IV-84]", "MRS MFC, µg/mL": 20}
{"Molecule": "[I-].c1ccc(CCCCC[n+]2cc(Sc3ccccc3)cc3ccccc32)cc1 [XYZ-III-54]", "MRS MFC, µg/mL": 10}
{"Molecule": "FC(F)(F)c1cccc(Sc2cc3ccccc3[n+](CCCCCc3ccccc3)c2)c1.[I-] [XYZ-IV-54]", "MRS MFC, µg/mL": 10}
{"Molecule": "Brc1cccc(Sc2cc3ccccc3[n+](CCCCCc3ccccc3)c2)c1.[I-] [XYZ-III-87]", "MRS MFC, µg/mL": 20}

Origin of values: patent US8288410B2
